# ASSAY COMMENT: chemical genetic growth profiling, strain panel (AID 1159580);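 note: tested at 20 µM; growth read once vehicle control cultures reached saturation at 30 °C; 1 = growth at the plate median or of vehicle wells; lower values mean less growth of the strain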
# CONDITION PARAMETERS: S. cerevisiae deletion strains, growth OD, locus YPL240C, strain hsp82, hits give low values
Screen size: about 5,500 compounds; about 2,000 (36%) were called active. Not shown: some 18% with an inconclusive outcome. Some of the results follow.
QUANTITY: normalized growth
# print the numeric value only

Please report normalized growth for the following compound: "COc1ccc(CN(CCN(C)C)c2ncccn2)cc1"
0.999

Quote normalized growth reported for CC(=O)O[C@H]1CC[C@@]2(C)C(=CCC3C2CC[C@@]2(C)C3CC[C@@H]2C(C)CCCC(C)C)C1 (stereo not given in full) please.
1

Write down normalized growth measured for item "COC(=O)[C@H]1[C@H]2C[C@@H]3c4[nH]c5cc(OC)ccc5c4CCN3C[C@H]2C[C@@H](OC(=O)c2cc(OC)c(OC)c(OC)c2)[C@@H]1OC"
0.992

Complete the entry with normalized growth for CC(=O)O[C@H]1CC[C@@]2(C)C(=CCC3C2CC[C@]2(C)C(=O)CCC32)C1 (stereo not given in full)
0.983

// fetch normalized growth given entry CCCNC(C)C(=O)Nc1ccccc1C (stereo not given)
1.01
